Target: human CYP11B1 (Homo sapiens, UniProt P15538)
Sequence (P15538 25-503): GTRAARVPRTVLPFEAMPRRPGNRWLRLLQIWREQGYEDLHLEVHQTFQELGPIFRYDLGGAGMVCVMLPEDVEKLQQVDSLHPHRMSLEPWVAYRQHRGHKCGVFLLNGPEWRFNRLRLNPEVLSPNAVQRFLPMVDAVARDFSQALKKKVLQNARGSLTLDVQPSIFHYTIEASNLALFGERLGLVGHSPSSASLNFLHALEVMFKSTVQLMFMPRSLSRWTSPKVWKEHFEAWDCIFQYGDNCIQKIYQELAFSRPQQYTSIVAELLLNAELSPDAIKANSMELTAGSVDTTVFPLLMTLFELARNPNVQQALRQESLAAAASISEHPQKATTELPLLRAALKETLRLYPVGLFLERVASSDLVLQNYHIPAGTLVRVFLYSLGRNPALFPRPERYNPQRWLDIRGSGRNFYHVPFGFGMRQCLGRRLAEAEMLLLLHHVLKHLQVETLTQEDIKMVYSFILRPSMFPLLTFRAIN
Test: G-402 cellular enzyme assay, human CYP11B1 (cortisol release, HTRF)
Conditions: G-402 cells expressing human CYP11B1; 1 μM Deoxycortisol
endpoint: EC50 (nM)

compound | study system | EC50 [nM]
CCC(=O)N1CCC[C@@H]1COc1cncc(-c2ccc3c(c2)CCC(=O)N3C)c1 | human CYP11B1 (Homo sapiens, UniProt P15538) | 2290
CN1C(=O)CCc2cc(-c3cncc(N4CCCC4=O)c3)ccc21 | human CYP11B1 (Homo sapiens, UniProt P15538) | 1570
CCS(=O)(=O)NCc1cncc(-c2cc3c(cc2Cl)N(C)C(=O)CC3)c1 | human CYP11B1 (Homo sapiens, UniProt P15538) | 2540
Cc1noc(C)c1C(=O)NC(C)c1cncc(-c2ccc3c(c2)CCC(=O)N3C)c1 (single isomer, unassigned) | human CYP11B1 (Homo sapiens, UniProt P15538) | 163
CC(N[S@+]([O-])C(C)(C)C)c1cncc(-c2ccc3c(c2)CCC(=O)N3C)c1Cl (single isomer, unassigned) | human CYP11B1 (Homo sapiens, UniProt P15538) | 261

A: CCS(=O)(=O)NC1(c2cncc(-c3ccc4c(c3)CCC(=O)N4C)c2)CC1
B: CCS(=O)(=O)NC(C)c1cncc(-c2cc3c(cc2F)N(C)C(=O)CC3)c1 (single isomer, unassigned) [Example 190]
Lower value of EC50 belongs to which: A or B ? Field: selected label. Fill in the label of the entry you choose.
B
